target.of.assay: Adenylate cyclase type 2 (Homo sapiens, UniProt Q08462)
Sequence (Q08462 whole entry): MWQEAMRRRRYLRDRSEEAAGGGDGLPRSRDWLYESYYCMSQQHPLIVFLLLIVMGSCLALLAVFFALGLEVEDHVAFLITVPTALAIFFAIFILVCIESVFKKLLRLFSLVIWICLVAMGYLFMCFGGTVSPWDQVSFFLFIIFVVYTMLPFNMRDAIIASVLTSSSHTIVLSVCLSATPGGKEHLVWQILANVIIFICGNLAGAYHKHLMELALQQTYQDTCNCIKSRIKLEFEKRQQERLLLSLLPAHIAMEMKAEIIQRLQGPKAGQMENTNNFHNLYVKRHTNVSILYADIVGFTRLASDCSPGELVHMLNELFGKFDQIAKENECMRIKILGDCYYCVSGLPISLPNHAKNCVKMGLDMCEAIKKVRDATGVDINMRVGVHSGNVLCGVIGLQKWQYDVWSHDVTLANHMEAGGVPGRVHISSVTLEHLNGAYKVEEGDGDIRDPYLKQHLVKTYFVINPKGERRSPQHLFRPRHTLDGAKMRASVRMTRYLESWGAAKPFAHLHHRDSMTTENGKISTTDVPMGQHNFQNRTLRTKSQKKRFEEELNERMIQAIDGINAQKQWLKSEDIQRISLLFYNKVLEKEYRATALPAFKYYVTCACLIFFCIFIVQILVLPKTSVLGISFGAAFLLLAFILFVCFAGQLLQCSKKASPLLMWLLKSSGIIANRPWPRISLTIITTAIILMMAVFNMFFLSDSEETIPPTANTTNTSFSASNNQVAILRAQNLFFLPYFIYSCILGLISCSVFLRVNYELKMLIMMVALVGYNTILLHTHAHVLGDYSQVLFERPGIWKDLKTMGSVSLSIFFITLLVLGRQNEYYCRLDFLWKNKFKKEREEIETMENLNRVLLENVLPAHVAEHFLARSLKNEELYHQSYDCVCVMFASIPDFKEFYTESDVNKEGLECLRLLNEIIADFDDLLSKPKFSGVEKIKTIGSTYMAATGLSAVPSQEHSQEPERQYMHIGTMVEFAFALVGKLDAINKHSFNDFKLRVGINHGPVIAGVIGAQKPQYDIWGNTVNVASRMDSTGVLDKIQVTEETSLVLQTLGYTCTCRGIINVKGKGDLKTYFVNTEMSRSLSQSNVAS
test.summary: Agonist activity at recombinant human AC2 expressed in HEK293 cells assessed as increase in cAMP level measured after 30 mins by LANCE Ultra cAMP Detection kit method
pEC50: −log10 of the molar value.
Reported values of pEC50 for individual entries

- molecule: "O=C1[C@H]2[C@@H](c3ccccc3)OC3(C(=O)c4ccccc4C3=O)[C@H]2C(=O)N1c1cccc(Cl)c1"
  pEC50: 5.09
- molecule: "Cc1ccc([C@H]2OC3(C(=O)c4cccc(F)c4C3=O)[C@H]3C(=O)N(c4ccccc4Cl)C(=O)[C@@H]23)cc1 (mixture of isomers)"
  pEC50: 6.46
- molecule: "Cc1ccc([C@H]2OC3(C(=O)c4ccccc4C3=O)[C@H]3C(=O)N(C4CCCC4)C(=O)[C@@H]23)cc1"
  pEC50: 5.46
- molecule: "COc1cccc(N2C(=O)[C@H]3[C@@H](c4ccc(C)cc4)OC4(C(=O)c5ccccc5C4=O)[C@H]3C2=O)c1"
  pEC50: 6.02
- molecule: "CCOc1ccc(N2C(=O)[C@H]3[C@@H](c4ccccc4)OC4(C(=O)c5ccccc5C4=O)[C@H]3C2=O)cc1"
  pEC50: 4.49
- molecule: "CCc1ccc([C@H]2OC3(C(=O)c4ccccc4C3=O)[C@H]3C(=O)N(c4ccc(C)cc4)C(=O)[C@@H]23)cc1"
  pEC50: 6.17
- molecule: "Cc1ccc(Cl)cc1N1C(=O)[C@H]2[C@@H](c3ccccc3)OC3(C(=O)c4ccccc4C3=O)[C@H]2C1=O"
  pEC50: 5.51

* * *

target.of.assay: Adenylate cyclase type 2 (Homo sapiens, UniProt Q08462)
test.summary: Agonist activity at recombinant human AC2 expressed in HEK293 cells assessed as increase in cAMP level measured after 30 mins by LANCE Ultra cAMP Detection kit method
pEC50: −log10 of the molar value.
Reported values of pEC50 for individual entries

- compound: "COc1ccc(N2C(=O)[C@H]3[C@@H](c4ccc(C)cc4)OC4(C(=O)c5ccccc5C4=O)[C@H]3C2=O)cc1"
  pEC50: 4.77
- compound: "Cc1ccc([C@H]2OC3(C(=O)c4cccc(C)c4C3=O)[C@H]3C(=O)N(c4ccccc4Cl)C(=O)[C@@H]23)cc1 (mixture of isomers)"
  pEC50: 5.97
- compound: "CC(C)c1ccc([C@H]2OC3(C(=O)c4ccccc4C3=O)[C@H]3C(=O)N(c4ccc(F)cc4)C(=O)[C@@H]23)cc1"
  pEC50: 5.89
- compound: "CCC[C@H]1OC2(C(=O)c3ccccc3C2=O)[C@H]2C(=O)N(c3ccccc3Cl)C(=O)[C@@H]12"
  pEC50: 5.37
- compound: "CCOc1ccc(N2C(=O)[C@H]3[C@@H](c4ccc(F)cc4)OC4(C(=O)c5ccccc5C4=O)[C@H]3C2=O)cc1"
  pEC50: 4.41
- compound: "Cc1ccc([C@H]2OC3(C(=O)c4ccccc4C3=O)[C@H]3C(=O)N(c4ccc(C)cc4F)C(=O)[C@@H]23)cc1"
  pEC50: 6.11
- compound: "Cc1cccc([C@H]2OC3(C(=O)c4ccccc4C3=O)[C@H]3C(=O)N(c4ccccc4Cl)C(=O)[C@@H]23)c1"
  pEC50: 5.17

* * *

target.of.assay: Adenylate cyclase type 2 (Homo sapiens, UniProt Q08462)
test.summary: Agonist activity at recombinant human AC2 expressed in HEK293 cells assessed as increase in cAMP level by measuring cAMP level at 50 uM measured after 30 mins by LANCE Ultra cAMP Detection kit method relative to control
Format: cell-based
particulars: filed as agonist
Exam item: assign class 1 to entries whose Activity is below 80% and class 0 to entries at or above 80%. Note that a value of exactly 80% receives class 0.

- input.smiles: "Cc1ccc([C@H]2OC3(C(=O)c4ccccc4C3=O)[C@H]3C(=O)N(c4ccc(C)c(Cl)c4)C(=O)[C@@H]23)cc1"
  class.label: "class 0"
- input.smiles: "O=C1[C@H]2[C@@H](c3ccc(Cl)cc3)OC3(C(=O)c4ccccc4C3=O)[C@H]2C(=O)N1c1cccc(F)c1"
  class.label: "class 0"
- input.smiles: "CCOc1ccc(N2C(=O)[C@H]3[C@@H](c4ccc(F)cc4)OC4(C(=O)c5ccccc5C4=O)[C@H]3C2=O)cc1"
  class.label: "class 0"
- input.smiles: "Cc1ccc([C@H]2OC3(C(=O)c4ccccc4C3=O)[C@H]3C(=O)N(C4CCCC4)C(=O)[C@@H]23)cc1"
  class.label: "class 1"
- input.smiles: "Cc1ccc([C@H]2OC3(C(=O)c4ccccc4C3=O)[C@H]3C(=O)N(CC(C)C)C(=O)[C@@H]23)cc1"
  class.label: "class 1"
- input.smiles: "Cc1cccc([C@H]2OC3(C(=O)c4ccccc4C3=O)[C@H]3C(=O)N(c4cccc(C)c4)C(=O)[C@@H]23)c1"
  class.label: "class 0"
- input.smiles: "Cc1ccc([C@H]2OC3(C(=O)c4ccccc4C3=O)[C@H]3C(=O)N(C)C(=O)[C@@H]23)cc1"
  class.label: "class 1"
- input.smiles: "Cc1ccc([C@H]2OC3(C(=O)c4ccccc4C3=O)[C@H]3C(=O)N(c4ccc(F)cc4)C(=O)[C@@H]23)cc1"
  class.label: "class 0"
